ID50 (ng min-1 rat-1) for assorted molecules
measurement target: Angiotensin II receptor (Rattus norvegicus) (UniProt P29089+P25095+P35351)
assay: In vivo antagonist activity (ANG II like) expressed by blood pressure increase (mHg) produced by […] iv injection of compound in rats
Type: functional, organism-based
Square brackets hold non-standard residues; d marks the D form. Peptide text beside a SMILES is read from it. NMeA = CN[C@@H](C)C(=O)O; Sar = CNCC(=O)O
Number only, no unit.

Record excerpt, results attached:
CC[C@H](C)[C@H](NC(=O)[C@@H]1CCCN1C(=O)[C@H](Cc1c[nH]cn1)NC(=O)[C@@H](NC(=O)[C@H](Cc1ccc(O)cc1)NC(=O)[C@H](C)NC(=O)[C@H](CCCN=C(N)N)NC(=O)CNC)[C@@H](C)CC)C(=O)O (H-[Sar]RAYIHPI-OH) :: 25
CC[C@H](C)[C@H](NC(=O)[C@@H]1CCCN1C(=O)[C@H](Cc1c[nH]cn1)NC(=O)[C@@H](NC(=O)[C@H](Cc1ccc(O)cc1)NC(=O)[C@H](C)N(C)C(=O)[C@H](CCCN=C(N)N)NC(=O)CNC)[C@@H](C)CC)C(=O)O (H-[Sar]R[NMeA]YIHPI-OH) :: 25

Problem: What value of ID50 (ng min-1 rat-1) has been reported for the following molecule? CC[C@H](C)[C@H](NC(=O)[C@@H]1CCCN1C(=O)[C@H](Cc1c[nH]cn1)NC(=O)[C@@H](NC(=O)[C@H](Cc1ccc(O)cc1)NC(=O)[C@@H](NC(=O)[C@H](CCCN=C(N)N)NC(=O)CNC)C(C)C)[C@@H](C)CC)C(=O)O
Result: 10

Problem: Using the record for CC[C@H](C)[C@H](NC(=O)[C@H](Cc1ccc(O)cc1)NC(=O)[C@@H](NC(=O)[C@H](CCCN=C(N)N)NC(=O)CNC)C(C)C)C(=O)N[C@@H](Cc1c[nH]cn1)C(=O)N1CCC[C@H]1C(=O)N[C@H](Cc1ccccc1)C(=O)O , report its ID50 (ng min-1 rat-1).
Result: 12.5

----------
measurement target: Angiotensin II receptor (Rattus norvegicus) (UniProt P29089+P25095+P35351)
assay: In vitro agonist activity relative to angiotensin II measured in rabbit aorta strip assay.
Type: functional, tissue-based
Square brackets hold non-standard residues; d marks the D form. Peptide text beside a SMILES is read from it. Aib = CC(C)(N)C(=O)O; Sar = CNCC(=O)O
readout name: Activity
# number then unit; no other words

CC[C@H](C)[C@H](NC(=O)[C@H](Cc1ccc(O)cc1)NC(=O)[C@H](C)NC(=O)[C@H](CCCN=C(N)N)NC(=O)CNC)C(=O)N[C@@H](Cc1c[nH]cn1)C(=O)N1CCC[C@H]1C(=O)N[C@@H](Cc1ccccc1)C(=O)O (H-[Sar]RAYIHPF-OH) :: 38%
CC[C@H](C)[C@H](NC(=O)C(C)(C)NC(=O)[C@H](Cc1c[nH]cn1)NC(=O)[C@@H](NC(=O)[C@H](Cc1ccc(O)cc1)NC(=O)[C@@H](NC(=O)[C@H](CCCN=C(N)N)NC(=O)CNC)C(C)C)[C@@H](C)CC)C(=O)O (H-[Sar]RVYIH[Aib]I-OH) :: 0%
CC[C@H](C)[C@H](NC(=O)[C@@H]1CCCN1C(=O)[C@H](Cc1c[nH]cn1)NC(=O)[C@](C)(Cc1ccc(O)cc1)NC(=O)[C@H](Cc1ccc(O)cc1)NC(=O)[C@@H](NC(=O)[C@H](CCCN=C(N)N)NC(=O)CNC)C(C)C)C(=O)O :: 0%

Problem: # query: Activity | item CC[C@H](C)[C@H](NC(=O)[C@H](Cc1ccc(O)cc1)NC(=O)[C@H](C)N(C)C(=O)[C@H](CCCN=C(N)N)NC(=O)CNC)C(=O)N[C@@H](Cc1c[nH]cn1)C(=O)N1CCC[C@H]1C(=O)N[C@@H](Cc1ccccc1)C(=O)O | system: Angiotensin II receptor (Rattus norvegicus) (UniProt P29089+P25095+P35351)
Result: 120%

Problem: Form: Entry = CC[C@H](C)[C@H](NC(=O)[C@@H]1CCCN1C(=O)[C@H](Cc1c[nH]cn1)NC(=O)[C@@H](NC(=O)[C@H](Cc1ccc(O)cc1)NC(=O)[C@@H](NC(=O)[C@H](CCCN=C(N)N)NC(=O)CNC)C(C)C)[C@@H](C)CC)C(=O)O | System = Angiotensin II receptor (Rattus norvegicus) (UniProt P29089+P25095+P35351) | Activity = ____
Result: 0%

Problem: Query Activity on Angiotensin II receptor (Rattus norvegicus) (UniProt P29089+P25095+P35351) for CNCC(=O)N[C@@H](CCCN=C(N)N)C(=O)N[C@H](C(=O)N[C@@H](Cc1ccc(O)cc1)C(=O)N1CSC(C)(C)[C@@H]1C(=O)N[C@@H](Cc1c[nH]cn1)C(=O)N1CCC[C@H]1C(=O)N[C@@H](Cc1ccccc1)C(=O)O)C(C)C
Result: 250%

Problem: // map CC[C@H](C)[C@H](NC(=O)[C@H]1CSCN1C(=O)[C@H](Cc1c[nH]cn1)NC(=O)[C@@H](NC(=O)[C@H](Cc1ccc(O)cc1)NC(=O)[C@@H](NC(=O)[C@H](CCCN=C(N)N)NC(=O)CNC)C(C)C)[C@@H](C)CC)C(=O)O to recorded Activity (system: Angiotensin II receptor (Rattus norvegicus) (UniProt P29089+P25095+P35351))
Result: 0%

Problem: Return Activity measured with Angiotensin II receptor (Rattus norvegicus) (UniProt P29089+P25095+P35351) given this compound: CC[C@H](C)[C@H](NC(=O)[C@H](Cc1ccc(O)cc1)NC(=O)[C@@H](NC(=O)[C@H](CCCN=C(N)N)NC(=O)CNC)C(C)C)C(=O)N[C@@H](Cc1c[nH]cn1)C(=O)N1CCC[C@H]1C(=O)N[C@H](Cc1ccccc1)C(=O)O
Result: 0%
